Target: Serine/threonine-protein phosphatase PP1-alpha catalytic subunit (Homo sapiens) (UniProt P62136)
Sequence (P62136 whole entry, looked up): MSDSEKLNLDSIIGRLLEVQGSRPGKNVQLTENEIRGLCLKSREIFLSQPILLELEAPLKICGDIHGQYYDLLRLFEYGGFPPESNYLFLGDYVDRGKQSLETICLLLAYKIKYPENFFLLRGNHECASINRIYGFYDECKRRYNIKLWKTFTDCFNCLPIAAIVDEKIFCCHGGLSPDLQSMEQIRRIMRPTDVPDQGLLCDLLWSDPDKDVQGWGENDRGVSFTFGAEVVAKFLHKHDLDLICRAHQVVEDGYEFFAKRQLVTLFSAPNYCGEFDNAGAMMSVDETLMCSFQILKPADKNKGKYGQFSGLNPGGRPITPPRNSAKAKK
Experiment: NVS_ENZ_hPPP1CA: NovaScreen (NVS) Enzymatic Assay for human Protein Phosphatase 1 Aatalytic subunit Alpha (PPP1CA) (AID 2283200)
Records with an inconclusive call do not appear. Active and inactive are the calls of the source. Rule for the calls: active = hit-call score of the fitted dose curve at least 0.9, where 1 is the maximum; inconclusive = response in the unintended direction; inactive = score below 0.9.
// classify into T (active), F (inactive)

# fetch the recorded call for CCOC(=O)CC(SP(=O)(OC)OC)C(=O)OCC (stereo not given) here
F

# fetch the recorded call for `CCCCSP(=O)(SCCCC)SCCCC` here
T

# fetch the recorded call for `O=[N+]([O-])c1cc(C(F)(F)F)c(Cl)c([N+](=O)[O-])c1Nc1ncc(C(F)(F)F)cc1Cl` here
F

# fetch the recorded call for `CN(C)[C@@H]1C(=O)C(C(N)=O)=C(O)[C@@]2(O)C(=O)C3=C(O)c4c(O)cccc4[C@@](C)(O)[C@H]3[C@H](O)[C@@H]12` here
T

# fetch the recorded call for `CCOP(=S)(OCC)SCCSCC` here
F

====

Assay: CCTE_Shafer_MEA_acute_firing_rate_mean: CCTE's Neural Acute Assay for Mean Firing Rate, Shafer Lab (AID 2284009);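 note: analyzed for loss of signal so actives lower firing rate relative to DMSO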
Activity calls are given as the source filed them. The calls were made as follows: active = hit-call score of the fitted dose curve at least 0.9, where 1 is the maximum; inactive = score below 0.9.
Measurement type: AC50

>  <Compound>
CCOP(=S)(OCC)Oc1ccc2c(C)c(Cl)c(=O)oc2c1

>  <Result>
1.85 µM (active)

$$$$
>  <Compound>
N#CSCSC#N

>  <Result>
inactive

$$$$
>  <Compound>
CC(=NC#N)N(C)Cc1ccc(Cl)nc1

>  <Result>
inactive

$$$$
>  <Compound>
CC(COc1ccc(Oc2ccccc2)cc1)Oc1ccccn1 (stereo not given)

>  <Result>
20 µM (active)

$$$$
>  <Compound>
CC1=NNC(=O)N(/N=C/c2cccnc2)C1

>  <Result>
inactive

$$$$

Which AC50 value belongs to C#CCC1=C(C)C(OC(=O)C2C(C=C(C)C)C2(C)C)CC1=O (stereo not given) ?
27.4 µM (active)

Which AC50 value belongs to CCc1cccc(C)c1N(C(=O)CCl)C(C)COC (stereo not given) ?
27 µM (active)

Which AC50 value belongs to `O=C(O)c1cc(Oc2ccc(C(F)(F)F)cc2Cl)ccc1[N+](=O)[O-]` ?
inactive

Which AC50 value belongs to `C=C(C)[C@H]1Cc2c(ccc3c2O[C@@H]2COc4cc(OC)c(OC)cc4[C@@H]2C3=O)O1` ?
2.85 µM (active)

Which AC50 value belongs to CCc1cnc(C2=NC(C)(C(C)C)C(=O)N2)c(C(=O)O)c1 (stereo not given) ?
inactive

Which AC50 value belongs to `CN1COCN(Cc2cnc(Cl)s2)C1=N[N+](=O)[O-]` ?
inactive

====

Read-out: Broad substrate specificity ATP-binding cassette transporter ABCG2 (Homo sapiens)
Experiment: CLD_ABCG2_24hr: CellzDirect (CLD) Gene Expression Assay for ABC Transporter (ABCG2) at 24 hours (AID 2283685)
Method: CLD_24hr is a cell-based, multiplexed-readout assay that uses hepatocyte, a human liver primary cell, with measurements taken at 24 hours after chemical dosing in a 96-well plate.CLD_ABCG2_24hr is one of 16 assay component(s) measured or calculated from the CLD_24hr assay. […] Furthermore, this assay endpoint can be referred to as a primary readout. […]
Inconclusive results are not listed. Calls of active or inactive are those of the source. How the source made its calls: active means hit-call score of the fitted dose curve at least 0.9, where 1 is the maximum; inconclusive means response in the unintended direction; inactive means score below 0.9.
// classify into active, inactive

# fetch the recorded call for COP(=O)(OC)C(O)C(Cl)(Cl)Cl (stereo not drawn) here
inactive

# fetch the recorded call for `C[N+]1(C)CCCCC1` here
inactive

# fetch the recorded call for `CN(C)C(=O)Nc1cccc(C(F)(F)F)c1` here
inactive

# fetch the recorded call for `N#CSCSC#N` here
inactive

# fetch the recorded call for `CSc1nnc(C(C)(C)C)c(=O)n1N` here
inactive

# fetch the recorded call for `CCCCSP(=O)(SCCCC)SCCCC` here
inactive

# fetch the recorded call for C#CCC1=C(C)C(OC(=O)C2C(C=C(C)C)C2(C)C)CC1=O (stereo not drawn) here
inactive

# fetch the recorded call for `C=C(C)[C@H]1Cc2c(ccc3c2O[C@@H]2COc4cc(OC)c(OC)cc4[C@@H]2C3=O)O1` here
active

# fetch the recorded call for `Nc1c(Cl)cc([N+](=O)[O-])cc1Cl` here
inactive

# fetch the recorded call for `CON=C(C(=O)OC)c1ccccc1CON=C(C)c1cccc(C(F)(F)F)c1` here
inactive

# fetch the recorded call for `CCOP(=S)(OCC)SCCSCC` here
inactive

# fetch the recorded call for `S=C1NCCN1` here
inactive

# fetch the recorded call for `COc1cccc(C(=O)NN(C(=O)c2cc(C)cc(C)c2)C(C)(C)C)c1C` here
inactive
